The reported numbers originate from PubChem BioAssay (NCI).

System: SF-539 CNS
ASSAY_OVERVIEW: NCI tumour cell line growth inhibition, 48 h
We begin with a simple list: items and their reported TGI.
PROPERTY_MEASURED: TGI

[
  {
    "SAMPLE_SMILES": "CCn1c(=N)sc2nc3ccccc3n2c1=O",
    "PROPERTY_MEASURED": "TGI",
    "OBSERVED_VALUE": "> 100 µM"
  },
  {
    "SAMPLE_SMILES": "COc1ccc2c(c1)CCc1c(CO)c(COC(=O)NC(C)C)n(C)c1-2",
    "PROPERTY_MEASURED": "TGI",
    "OBSERVED_VALUE": "> 87 µM"
  },
  {
    "SAMPLE_SMILES": "Cc1ccc(C(=O)N/N=C2/C(=O)c3c4ccccc4cc4cccc2c34)cc1",
    "PROPERTY_MEASURED": "TGI",
    "OBSERVED_VALUE": "> 92.9 µM"
  }
]
